B1: FBXO34 (parent)
chain: ASSVESTLPVLEASSWKKQVSHDF

# Variants of: B1
# ASSAY_SUMMARY: protein stability index of a GFP-peptide fusion (GPS, HEK-293T) (PSI 1-6); higher = more stable;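 further: lentivirally expressed fusions sorted by FACS into six bins by GFP to DsRed ratio, PSI derived from sequencing read proportions per bin multiplied by bin number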
# MEASUREMENT_CONDITIONS: c terminus: a fixed tail appended
Assignment: determine reported protein stability index for the given variants.

Entry under test: `A1R` . Its protein stability index was 2.97

Entry under test: `F24C` . Its protein stability index was 3.49

Entry under test: `A13K` . Its protein stability index was 2.27

Entry under test: `S21I` . Its protein stability index was 2.64

Entry under test: `H22Y` . Its protein stability index was 3.01

Entry under test: `K17H` . Its protein stability index was 3.17

Entry under test: `F24Q` . Its protein stability index was 4.25

Entry under test: `F24R` . Its protein stability index was 4.53

Entry under test: `L11Y` . Its protein stability index was 2.69

Entry under test: `A1D` . Its protein stability index was 3.32

Entry under test: `S15R` . Its protein stability index was 3.81

Entry under test: `T7Q` . Its protein stability index was 4.86

Entry under test: `V4C` . Its protein stability index was 2.45

Entry under test: `P9E` . Its protein stability index was 1.96

Entry under test: `T7M` . Its protein stability index was 2.48

Entry under test: `E5A` . Its protein stability index was 2.68

Entry under test: `A13F` . Its protein stability index was 2.38

Entry under test: `F24P` . Its protein stability index was 4.26

Entry under test: `P9V` . Its protein stability index was 2.4

Entry under test: `S21T` . Its protein stability index was 3.61

Entry under test: `K17G` . Its protein stability index was 2.98

Entry under test: `K18V` . Its protein stability index was 2.53

Entry under test: `Q19A` . Its protein stability index was 2.61

Entry under test: `K17I` . Its protein stability index was 1.59

Entry under test: `V10K` . Its protein stability index was 2.45

Entry under test: `P9H` . Its protein stability index was 1.56

Entry under test: `K18Y` . Its protein stability index was 2.44

Entry under test: `Q19Y` . Its protein stability index was 2.01

Entry under test: `V10S` . Its protein stability index was 3.22

Entry under test: `S2Q` . Its protein stability index was 3.09

Entry under test: `L11W` . Its protein stability index was 2.54

Entry under test: `K17Q` . Its protein stability index was 1.52

Entry under test: `S2Y` . Its protein stability index was 2.28

Entry under test: `P9S` . Its protein stability index was 2.28

Entry under test: `S2P` . Its protein stability index was 3.46

Entry under test: `F24V` . Its protein stability index was 3.83

Entry under test: `D23M` . Its protein stability index was 2.96
